- experimental.target: T1, FcγRIIB-Fc fusion protein (soluble dimeric FcγRIIB) (human, UniProt P31994 43-217)
- T1 construct: extracellular domain; the suffix agl in 2bfcagl is not explained; also called FcRIIB-Fc; FcγRIIB-G2; not shown: hinge-CH2-CH3 domain of human IgG2
- T1 sequence (looked up): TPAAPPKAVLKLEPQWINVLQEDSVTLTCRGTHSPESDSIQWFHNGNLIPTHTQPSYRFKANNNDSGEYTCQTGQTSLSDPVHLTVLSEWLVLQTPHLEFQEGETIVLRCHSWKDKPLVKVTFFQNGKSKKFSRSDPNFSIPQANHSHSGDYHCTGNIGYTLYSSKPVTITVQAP
- procedure.details: SPR
pKd: −log10 of the molar value.
Entries and their measured pKd follow.

{"columns": ["binder", "pKd"],
 "data": [
  ["ch4-4-20 Y319F, P352L, P396L (antibody) EPKSCDKTHTCPPCPAPELLGGPSVFLFPPKPKDTLMISRTPEVTCVVVDVSHEDPEVKFNWYVDGVEVHNAKTKPREEQYNSTYRVVSVLTVLHQDWLNGKEFKCKVSNKALPAPIEKTISKAKGQPREPQVYTLLPSREEMTKNQVSLTCLVKGFYPSDIAVEWESNGQPENNYKTTPLVLDSDGSFFLYSKLTVDKSRWQQGNVFSCSVMHEALHNHYTQKSLSLSPGK", 7.25],
  ["ch4-4-20 G316D, A378V, D399E (antibody) ASTKGPSVFPLAPSSKSTSGGTAALGCLVKDYFPEPVTVSWNSGALTSGVHTFPAVLQSSGLYSLSSVVTVPSSSLGTQTYICNVNHKPSNTKVDKKVEPKSCDKTHTCPPCPAPELLGGPSVFLFPPKPKDTLMISRTPEVTCVVVDVSHEDPEVKFNWYVDGVEVHNAKTKPREEQYNSTYRVVSVLTVLHQDWLNDKEYKCKVSNKALPAPIEKTISKAKGQPREPQVYTLPPSRDELTKNQVSLTCLVKGFYPSDIVVEWESNGQPENNYKTTPPVLESDGSFFLYSKLTVDKSRWQQGNVFSCSVMHEALHNHYTQKSLSLSPGK", 7.34]
]}
